Listing: Fold increase h-GABA-A α5β3γ2 oocyte of selected molecules
Target: h-GABA-A α5β3γ2 (Homo sapiens (Human), UniProt P18507+P31644)
Assay: Two-electrode voltage clamp electrophysiology in Xenopus oocytes expressing GABAA receptors, modulation of GABA EC20 current
Assay type: cell-based
Conditions: Xenopus oocytes, GABA EC20, test compound at approx. 30 fold its Ki

molecule: Cc1ccc(-c2noc(C)c2COc2ccc(C(=O)N[C@@H]3C[C@@H]4CC[C@@H]3O4)nn2)cn1 (single isomer, unassigned)
Fold increase h-GABA-A α5β3γ2 oocyte: 1.86
//
molecule: Cc1ccc(-c2noc(C)c2COc2cc(C)c(C(=O)NC3CCOCC3)nn2)cn1
Fold increase h-GABA-A α5β3γ2 oocyte: 1.42
//
molecule: Cc1ccc(-c2noc(C)c2COc2ccc(C(=O)N[C@@H]3CCOC[C@H]3O)cn2)cn1
Fold increase h-GABA-A α5β3γ2 oocyte: 1.66
//
molecule: Cc1ccc(-c2noc(C)c2COc2ccc(C(=O)N3CCC34COC4)nn2)cn1
Fold increase h-GABA-A α5β3γ2 oocyte: 1.79
//
molecule: Cc1ccc(-c2noc(C)c2COc2ccc(C(=O)N[C@H]3C[C@H]4CC[C@H]3O4)nn2)cn1 (single isomer, unassigned)
Fold increase h-GABA-A α5β3γ2 oocyte: 1.71
//
molecule: COc1ccc(-c2noc(C)c2COc2ccc(C(=O)NC3CCOCC3)cn2)cn1
Fold increase h-GABA-A α5β3γ2 oocyte: 1.55
//
molecule: Cc1ccc(-c2noc(C)c2COc2ccc(C(=O)NC3(C)CCOCC3)cn2)cn1
Fold increase h-GABA-A α5β3γ2 oocyte: 1.64

----------
Molecular target: h-GABA-A α5β3γ2 (Homo sapiens (Human), UniProt P18507+P31644)
Experiment: Two-electrode voltage clamp electrophysiology in Xenopus oocytes expressing GABAA receptors, modulation of GABA EC20 current
Type: cell-based
Conditions: % modulation of GABA EC20 = 100*(Fold increase−1), Xenopus oocytes
Protocol: Xenopus laevis oocytes at maturation stages V-VI were used for the expression of cloned mRNA encoding GABAA receptor subunits. Oocytes ready for RNA micro-injection were bought from Ecocyte, Castrop-Rauxel, Germany and stored in modified Barth's medium (composition in mM: NaCl 88, KCl 1, NaHCO32.4, HEPES 10, MgSO4 0.82, CaNO3 0.33, CaCl2) 0.33, pH=7.5) at 20° C. until the experiment. […]
Friendly reminder: Efficacy (GABA) % below 80% is rule met, at or above is rule not met.

molecule: Cc1ccc(-c2noc(CF)c2COc2ccc(C(=O)NC3CCOCC3)nn2)nn1
class assignment: rule met
--
molecule: Cc1ccc(-c2noc(C)c2COc2ccc(C(=O)NCC3CC3)nn2)cn1
class assignment: rule not met
--
molecule: Cc1ccc(-c2noc(C3CC3)c2COc2ccc(C(=O)NC3CCOCC3)nn2)nn1
class assignment: rule not met
--
molecule: Cc1ccc(-c2noc(C)c2COc2ccc(C(=O)NC3CCOC(C)(C)C3)nn2)cn1 (racemic)
class assignment: rule met
--
molecule: Cc1ccc(-c2noc(C)c2COc2ccc(C(=O)NCC(F)(F)F)nn2)cn1
class assignment: rule not met
--
molecule: CCC[C@@H](CO)NC(=O)c1ccc(OCc2c(-c3ccc(C)nc3)noc2C2CC2)nc1
class assignment: rule not met
--
molecule: CC[C@@H](CC#N)NC(=O)c1ccc(OCc2c(-c3ccc(C)nc3)noc2C)nn1
class assignment: rule met
--
molecule: Cc1ccc(-c2noc(C)c2COc2ccc(C(=O)NC3CCS(=O)(=O)CC3)cn2)cn1
class assignment: rule not met
--
molecule: Cc1ccc(-c2noc(C)c2COc2ccc(C(=O)NC3CCS(=O)(=O)C3)cn2)cn1 (centres unmarked)
class assignment: rule not met
--
molecule: CCC[C@@H](CO)NC(=O)c1ccc(OCc2c(-c3ccc(N(C)C)nc3)noc2C)nc1
class assignment: rule not met
--
molecule: Cc1ccc(-c2noc(C)c2COc2ccc(C(N)=O)nn2)cn1
class assignment: rule met
--
molecule: Cc1ccc(-c2noc(C)c2COc2ccc(C(=O)N3CCC3)nn2)cn1
class assignment: rule met
--
molecule: Cc1onc(-c2ccc(Cl)nc2)c1COc1ccc(C(=O)N[C@H]2CCOC2)nn1
class assignment: rule met
--
molecule: CCc1onc(-c2ccc(C)nc2)c1COc1ccc(C(=O)NC2(C)COC2)nn1
class assignment: rule not met
--
molecule: Cc1ccc(-c2noc(C)c2COc2cnc(C(=O)N[C@H]3CC[C@@](C)(O)CC3)cn2)cn1
class assignment: rule met
--
molecule: Cc1ccc(-c2noc(C)c2COc2ccc(C(=O)N[C@@H]3CCCC[C@H]3O)nn2)cn1
class assignment: rule met

----------
Listing: Ki of selected compounds
Target: h-GABA-A α5β3γ2 (Homo sapiens (Human), UniProt P18507+P31644)
Experiment: [3H]flumazenil competition binding assay, membranes of HEK293 cells expressing human GABAA receptors
Details: displacement of [3H]flumazenil 0.5 nM, HEK293 cells expressing human receptors, mean of two determinations; read-out: Ki h-GABA-A α5β3γ2

record smiles: Cc1ccc(-c2noc(C)c2COc2cnc(C(=O)NC3CCOCC3)cn2)cn1
Ki [nM]: 19.8
//
record smiles: CO[C@H]1CC[C@@H](NC(=O)c2ccc(OCc3c(-c4ccc(C)nc4)noc3C)nn2)CC1
Ki [nM]: 18.2
//
record smiles: Cc1ccc(-c2noc(C)c2COc2ccc(C(=O)NC3CCOCC3)nn2)nn1
Ki [nM]: 1
//
record smiles: Cc1ccc(-c2noc(C)c2COc2ccc(C(=O)NCCO)nn2)cn1
Ki [nM]: 8

----------
Listing: Fold increase h-GABA-A α5β3γ2 oocyte of selected compounds
Biological target: h-GABA-A α5β3γ2 (Homo sapiens (Human), UniProt P18507+P31644)
Test: Two-electrode voltage clamp electrophysiology in Xenopus oocytes expressing GABAA receptors, modulation of GABA EC20 current
Assay type: cell-based
Conditions: Xenopus oocytes, GABA EC20, test compound at approx. 30 fold its Ki

compound: Cc1ccc(-c2noc(C)c2COc2ccc(C(=O)N[C@H]3CCOC3)nn2)cn1
Fold increase h-GABA-A α5β3γ2 oocyte: 1.8
//
compound: Cc1ccc(-c2noc(C)c2COc2ccc(C(=O)NC3CCOC(C)(C)C3)nn2)cn1 (racemic)
Fold increase h-GABA-A α5β3γ2 oocyte: 1.71
//
compound: COc1ccc(-c2noc(C)c2COc2ccc(C(=O)NC(C)C)cn2)cn1
Fold increase h-GABA-A α5β3γ2 oocyte: 1.46
//
compound: CCNC(=O)c1ccc(OCc2c(-c3ccc(C)nc3)noc2C)nc1
Fold increase h-GABA-A α5β3γ2 oocyte: 1.41
//
compound: Cc1ccc(-c2noc(C)c2COc2cnc(C(=O)N3CC4(C3)CS(=O)(=O)C4)cn2)cn1
Fold increase h-GABA-A α5β3γ2 oocyte: 1.28
//
compound: Cc1ccc(-c2noc(C)c2COc2ccc(C(=O)N[C@H]3CCCC(F)(F)[C@@H]3O)cn2)cn1
Fold increase h-GABA-A α5β3γ2 oocyte: 1.95
//
compound: Cc1ccc(-c2noc(C)c2COc2ccc(C(=O)N[C@H]3CCS(=O)(=O)C3)cn2)cn1
Fold increase h-GABA-A α5β3γ2 oocyte: 1.77

----------
Target: h-GABA-A α5β3γ2 (Homo sapiens (Human), UniProt P18507+P31644)
Experiment: Two-electrode voltage clamp electrophysiology in Xenopus oocytes expressing GABAA receptors, modulation of GABA EC20 current
Type: cell-based
Settings: Xenopus oocytes, GABA EC20, test compound at approx. 30 fold its Ki

compound: Cc1ccc(-c2noc(C)c2COc2ccc(C(=O)N[C@H]3CC[C@](O)(C(F)(F)F)C3)nn2)cn1 (single isomer, unassigned)
Fold increase h-GABA-A α5β3γ2 oocyte: 1.69

compound: Cc1ccc(-c2noc(C)c2COc2ccc(C(=O)N3CC(C)(F)C3)nn2)cn1
Fold increase h-GABA-A α5β3γ2 oocyte: 1.59

compound: Cc1ccc(-c2noc(C)c2COc2ccc(C(N)=O)nn2)cn1
Fold increase h-GABA-A α5β3γ2 oocyte: 1.59

compound: CNC(=O)c1ccc(OCc2c(-c3ccc(C)nc3)noc2C)nn1
Fold increase h-GABA-A α5β3γ2 oocyte: 1.63

compound: Cc1ccc(-c2noc(C3CC3)c2COc2ccc(C(=O)N[C@H]3CCOC3)nn2)cn1
Fold increase h-GABA-A α5β3γ2 oocyte: 2.41

compound: Cc1ccc(-c2noc(C)c2COc2cnc(C(=O)NCC(F)(F)F)cn2)cn1
Fold increase h-GABA-A α5β3γ2 oocyte: 1.42

compound: Cc1ccc(-c2noc(C)c2COc2ccc(C(=O)NC3CCOCC3)nn2)cn1
Fold increase h-GABA-A α5β3γ2 oocyte: 1.97

compound: Cc1ccc(-c2noc(C)c2COc2nnc(C(N)=O)cc2C)cn1
Fold increase h-GABA-A α5β3γ2 oocyte: 1.54

compound: Cc1ccc(-c2noc(CF)c2COc2ccc(C(=O)NC3CCOCC3)nn2)cn1
Fold increase h-GABA-A α5β3γ2 oocyte: 2.02
